# Target System: mineralcorticoid receptor (MR) (Homo sapiens, UniProt P08235)
# Method Notes: MR antagonism, luciferase reporter cell line assay
# Format: cell-based
# Measurement Setup: reporter cell lines, 16 hours incubation, luciferase luminescence, triplicate
Result Type: MR antagonism activity [% of the maximum effect]

## Input Need MR antagonism activity [% of the maximum effect], item CC[C@]12CC[C@H]3[C@@H](CCC4=CC(=O)CC[C@@H]43)[C@@H]1[C@@H]1C[C@@H]1[C@@H]2C#N (single isomer, unassigned)
## Output 103.44 % of the maximum effect

## Input Next record, please: `CC[C@]12CC[C@H]3[C@@H]([C@@H]4C[C@@H]4C4=CC(=O)CC[C@@H]43)[C@@H]1[C@@H]1C[C@@H]1[C@]2(C)C#N`
## Output 89.49 % of the maximum effect

## Input Another molecule to look at: `CC[C@]12CC[C@H]3[C@@H]([C@H]4C[C@H]4C4=CC(=O)CC[C@@H]43)[C@@H]1[C@@H]1C[C@@H]1[C@@H]2C#N`
## Output 97.52 % of the maximum effect

## Input Same question, `CC[C@]12CC[C@H]3[C@@H]([C@H](C)CC4=CC(=O)CC[C@@H]43)[C@@H]1CC[C@@H]2C#N` this time
## Output 99.07 % of the maximum effect

## Input Consider next the molecule `CC[C@]12CC[C@H]3[C@@H](CCC4=CC(=O)CC[C@@H]43)[C@@H]1[C@@H]1C[C@@H]1[C@]2(C)C#N` in the same way.
## Output 64.87 % of the maximum effect

***
## Input So what's the measured MR antagonism activity [% of the maximum effect] for this one? `CC[C@]12CC[C@H]3[C@@H](CCC4=CC(=O)CC[C@@H]43)[C@@H]1CC[C@@H]2C#N`
## Output 94.48 % of the maximum effect

###

# Target System: UniProtKB P08235
# Sequence (P08235 1-984): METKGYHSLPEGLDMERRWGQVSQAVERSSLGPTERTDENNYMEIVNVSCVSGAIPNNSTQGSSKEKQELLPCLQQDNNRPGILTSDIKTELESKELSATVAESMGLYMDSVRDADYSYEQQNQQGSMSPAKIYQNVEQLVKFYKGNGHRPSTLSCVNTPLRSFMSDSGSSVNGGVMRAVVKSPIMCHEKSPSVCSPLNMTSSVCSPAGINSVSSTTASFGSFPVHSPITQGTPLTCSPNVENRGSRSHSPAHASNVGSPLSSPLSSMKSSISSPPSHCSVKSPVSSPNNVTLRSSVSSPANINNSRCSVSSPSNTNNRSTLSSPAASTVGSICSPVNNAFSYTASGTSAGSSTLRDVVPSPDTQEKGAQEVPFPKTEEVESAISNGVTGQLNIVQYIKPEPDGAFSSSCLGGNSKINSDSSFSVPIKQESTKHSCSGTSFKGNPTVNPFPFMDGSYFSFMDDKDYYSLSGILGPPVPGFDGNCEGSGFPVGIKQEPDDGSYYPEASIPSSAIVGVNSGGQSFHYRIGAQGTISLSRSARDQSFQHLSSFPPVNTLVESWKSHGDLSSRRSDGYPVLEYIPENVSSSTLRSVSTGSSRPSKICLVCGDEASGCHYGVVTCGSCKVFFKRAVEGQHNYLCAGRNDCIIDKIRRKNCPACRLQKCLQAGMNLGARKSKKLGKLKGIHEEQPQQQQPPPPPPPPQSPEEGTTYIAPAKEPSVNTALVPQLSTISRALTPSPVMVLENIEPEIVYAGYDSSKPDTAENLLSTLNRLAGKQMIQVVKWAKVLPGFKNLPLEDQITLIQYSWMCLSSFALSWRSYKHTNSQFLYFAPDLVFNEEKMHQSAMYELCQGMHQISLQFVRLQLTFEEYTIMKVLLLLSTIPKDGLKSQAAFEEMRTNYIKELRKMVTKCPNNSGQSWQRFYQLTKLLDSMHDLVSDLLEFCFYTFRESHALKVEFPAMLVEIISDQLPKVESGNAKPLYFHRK
# Method Notes: MR antagonism, luciferase reporter cell line assay
# Assay type: cell-based
# Measurement Setup: reporter cell lines, 16 hours incubation, luciferase luminescence, triplicate; read-out: MR antagonism IC50
pIC50: −log10 of the molar value.
Decide by pIC50: equal to or exceeding 8 means y, less means n.

## Input Is the recorded value of pIC50 equal to or greater than 8 for this molecule? `CC[C@]12CC[C@H]3[C@@H](CCC4=CC(=O)CC[C@@H]43)[C@@H]1[C@@H]1C[C@@H]1[C@]2(C)C#N`
## Output y

Now for another entry.
## Input Given `CC[C@]12CC[C@H]3[C@@H]([C@@H]4C[C@@H]4C4=CC(=O)CC[C@@H]43)[C@@H]1[C@@H]1C[C@@H]1[C@]2(C)C#N` , state whether its pIC50 is at least 8.
## Output n
